Measured IC50 of individual entries
# test-target: human KCNK13 (Homo sapiens)
# Sequence (Q9HB14 whole entry): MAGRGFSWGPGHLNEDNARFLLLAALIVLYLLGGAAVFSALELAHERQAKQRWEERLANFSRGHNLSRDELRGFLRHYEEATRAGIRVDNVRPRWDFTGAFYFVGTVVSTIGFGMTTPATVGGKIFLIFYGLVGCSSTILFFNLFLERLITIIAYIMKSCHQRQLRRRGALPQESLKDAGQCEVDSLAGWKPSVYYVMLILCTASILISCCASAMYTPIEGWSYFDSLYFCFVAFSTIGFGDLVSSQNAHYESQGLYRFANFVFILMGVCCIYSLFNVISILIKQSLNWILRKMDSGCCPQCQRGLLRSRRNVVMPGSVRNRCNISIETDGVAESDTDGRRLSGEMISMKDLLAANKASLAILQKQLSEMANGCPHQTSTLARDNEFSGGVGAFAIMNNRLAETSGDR
# assay-details: KCNK13 antagonist activity, thallium flux FLIPR assay in HEK 293 cells stably expressing human KCNK13
# measurement-conditions: HEK 293 cells stably expressing human KCNK13, Tl+ sensitive dye, compound 15 min before thallium sulfate, ten point curves; read-out: hKCNK13 IC50

Examples with their reported IC50 follow.
[[record]]
molecule = "CC(c1cccc(F)c1)N(C)C(=O)c1cc(F)cnc1OC(F)F (single isomer, unassigned) [Example 88]"
test_target = "human KCNK13 (Homo sapiens)"
reported_measurement = "≤ 0.1 µM"

[[record]]
molecule = "CN(C(=O)c1cc(Cl)cnc1OC(F)F)C1CS(=O)(=O)c2ccccc21 (centres unmarked)"
test_target = "human KCNK13 (Homo sapiens)"
reported_measurement = "≤ 0.5 µM"

[[record]]
molecule = "CC(c1cccc(F)c1)N(C)C(=O)c1cc(Cl)cnc1OC(F)F (single isomer, unassigned) [Example 87]"
test_target = "human KCNK13 (Homo sapiens)"
reported_measurement = "≤ 0.2 µM"

[[record]]
molecule = "CN(Cc1ccc(F)cc1F)C(=O)c1cc(Cl)cnc1OC(F)F"
test_target = "human KCNK13 (Homo sapiens)"
reported_measurement = "≤ 0.1 µM"

[[record]]
molecule = "CN(C(=O)c1cc(F)cnc1OC(F)F)C1COc2ccccc21 (centres unmarked)"
test_target = "human KCNK13 (Homo sapiens)"
reported_measurement = "≤ 0.2 µM"

[[record]]
molecule = "COc1ncccc1S(=O)(=O)N1CCOc2ccc(F)cc2C1"
test_target = "human KCNK13 (Homo sapiens)"
reported_measurement = "≤ 0.5 µM"


**Query** Which measured IC50 value corresponds to COc1ncc(Cl)cc1C(=O)N(C)C1CCOc2cc(F)ccc21 (centres unmarked) ?
**Result** ≤ 1 µM

**Query** Which measured IC50 value corresponds to COc1ncc(F)cc1C(=O)N(C)C1COc2ccc(F)cc21 (centres unmarked) ?
**Result** ≤ 0.5 µM

The origin of these recorded values is patent US20260167632A1.
